# ASSAY_NAME: qHTS assay for small molecule agonists of the antioxidant response element (ARE) signaling pathway measured by Nrf2-dependant transcriptional activity (AID 720636);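 on activation: HepG2 cells with an ARE-driven luciferase reporter; % of control where 0% means no effect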
# CONDITIONS_USED: ARE-luc HepG2, Nrf2 luciferase reporter, 16 h; series mostly up to 92.4 µM
Results filed as inconclusive are left out. Activity calls are given as the source filed them. The call rests on the fitted dose curve; in most records, active means well fitted activation curve with a large enough effect in the repeat runs; inconclusive means weak or mixed curves; inactive means flat fitted curve, though single readings scatter. Peptide text beside a SMILES is read from it.
Return exactly one item of y (active), n (inactive)

>  <COMPOUND>
CS(=O)(=O)OCCCCOS(C)(=O)=O

>  <LABEL_VALUE>
n

$$$$
>  <COMPOUND>
NS(=O)(=O)c1cc(C(=O)O)c(NCc2ccco2)cc1Cl

>  <LABEL_VALUE>
n

$$$$

Qu. Answer briefly: the call reported for Nc1nc(Cl)nc2c1ncn2[C@H]1C[C@H](O)[C@@H](CO)O1 in this assay.
Ans. n

Qu. For Nc1ccc(S(N)(=O)=O)cc1 , what call appears in the results of this test?
Ans. n

Qu. Test call, this compound: COc1cc(OC)c(C(=O)CCCN2CCCC2)c(OC)c1
Ans. n

Qu. Which outcome was assigned to CC(=O)N1CCN(c2ccc(OC[C@H]3CO[C@](Cn4ccnc4)(c4ccc(Cl)cc4Cl)O3)cc2)CC1 in this test?
Ans. n

Qu. Could you please tell me the result logged for CCN(CC)C(=S)SSC(=S)N(CC)CC in this assay?
Ans. y

Qu. // param item: COC(=O)[C@H](Cc1ccccc1)NC(=O)[C@@H](N)CC(=O)O (H-Asp-Phe-OMe) ; yields the recorded call
Ans. n

---

# ASSAY_NAME: qHTS Assay for Lipid Storage Modulators (AID 1519); further: on the % scale 0 is the no-effect control and ±100 the full control effect
# CONDITIONS_USED: Drosophila S3 cells, BODIPY lipid droplet/cell ratio, laser cytometry; at 57.5 µM (top of the series); cells loaded with oleic acid
Inconclusive results are not listed. Active and inactive are the calls of the source. Calls come from the whole dose curve.
MEASURED_PARAMETER: activity change, negative = inhibition

As a guide, the following entries are already answered.
>  <MOLECULE>
Cc1nc2n(c(=O)c1CCN1CCC(c3noc4cc(F)ccc34)CC1)CCCC2

>  <activity change, negative = inhibition>
0.755% (inactive)

$$$$
>  <MOLECULE>
Nc1cc(C(Cl)=C(Cl)Cl)c(S(N)(=O)=O)cc1S(N)(=O)=O

>  <activity change, negative = inhibition>
2.69% (inactive)

$$$$
>  <MOLECULE>
O=C(c1ccccc1)c1ccc2n1CCC2C(=O)O (stereo not drawn)

>  <activity change, negative = inhibition>
6.17% (inactive)

$$$$
>  <MOLECULE>
CS(=O)(=O)OCCCCOS(C)(=O)=O

>  <activity change, negative = inhibition>
1.02% (inactive)

$$$$
>  <MOLECULE>
O=C(O)c1cc(=O)c2c(OCC(O)COc3cccc4oc(C(=O)O)cc(=O)c34)cccc2o1

>  <activity change, negative = inhibition>
11.5% (inactive)

$$$$

Qu. For the molecule shown here, Cc1cc2c(s1)Nc1ccccc1N=C2N1CCN(C)CC1 , give the reported activity change, negative = inhibition.
Ans. 13.5% (inactive)

Qu. Please give the measured activity change, negative = inhibition for this molecule: O=C1c2ccccc2-c2n[nH]c3cccc1c23
Ans. 2.36% (inactive)

Qu. Find the recorded activity change, negative = inhibition belonging to Cc1ncc([N+](=O)[O-])n1CC(C)O (stereo not drawn) and report it.
Ans. 2.12% (inactive)

Qu. May I ask what activity change, negative = inhibition has been recorded for O=C1c2c(O)cc(O)cc2OC(c2ccc(O)c(O)c2)C1O (stereo not drawn) ?
Ans. 0.956% (inactive)

Qu. Consider the molecule shown here: CN(C)CCc1c[nH]c2ccc(Cn3cncn3)cc12 What is its recorded activity change, negative = inhibition?
Ans. 3.43% (inactive)

Qu. Requested read-out: activity change, negative = inhibition. Entry: O=C(O)c1cccnc1Nc1cccc(C(F)(F)F)c1
Ans. 2.96% (inactive)

Qu. Can you share its activity change, negative = inhibition? I mean this molecule: S=c1nc[nH]c2nc[nH]c12
Ans. 2.17% (inactive)

Qu. # query: activity change, negative = inhibition of entry Nc1nc(Cl)nc2c1ncn2[C@H]1C[C@H](O)[C@@H](CO)O1
Ans. -3.99% (inactive)

Qu. Entry under review: CCN(CCO)CCCC(C)Nc1ccnc2cc(Cl)ccc12 (stereo not drawn) . Reported activity change, negative = inhibition?
Ans. 5.88% (inactive)

Qu. Param item = CC(=O)O[C@H]1C(=O)[C@@]2(C)C([C@H](OC(=O)c3ccccc3)[C@]3(O)C[C@H](OC(=O)[C@H](O)[C@@H](NC(=O)c4ccccc4)c4ccccc4)C(C)=C1C3(C)C)[C@]1(OC(C)=O)CO[C@@H]1C[C@@H]2O (stereo partly drawn) ; retrieve measured activity change, negative = inhibition.
Ans. -1.06% (inactive)

Qu. What activity change, negative = inhibition value was documented for this molecule, CN1CCC(=C2c3ccccc3CCc3sccc32)CC1 ?
Ans. 3.6% (inactive)

Qu. Reported activity change, negative = inhibition, molecule Cc1c(OCC(F)(F)F)ccnc1CS(=O)c1nc2ccccc2[nH]1 (stereo not drawn) : ____
Ans. 0.201% (inactive)

Qu. Need activity change, negative = inhibition, item COc1ccc2cc([C@H](C)C(=O)O)ccc2c1
Ans. 1.21% (inactive)

Qu. I'd like to know its activity change, negative = inhibition. The molecule in question is O=C1NC(=O)C(c2ccccc2[N+](=O)[O-])=C1Nc1ccc(O)c(Cl)c1
Ans. -0.486% (inactive)

Qu. What does the data say about its activity change, negative = inhibition? Entry: O=C(NC(Cc1cc(=O)[nH]c2ccccc12)C(=O)O)c1ccc(Cl)cc1 (stereo not drawn)
Ans. 11.1% (inactive)

Qu. Fill blank: measured activity change, negative = inhibition of the molecule NC(=NCc1ccccc1)NC(=O)c1nc(Cl)c(N)nc1N is ____.
Ans. 2.33% (inactive)

Qu. // activity change, negative = inhibition lookup, key: CCCOc1ccc2nc(NC(=O)OC)[nH]c2c1
Ans. 5.26% (inactive)

Qu. Record request: activity change, negative = inhibition value, item CCc1nc(N)nc(N)c1-c1ccc(Cl)cc1
Ans. 9.2% (inactive)

---

# ASSAY_NAME: qHTS Screen of the MIPE 4.0 Collection Against Ewings Sarcoma (EW8) (AID 1259255); further: nearly all actives have a fitted effect of over 35% in size; further: potency means the concentration at half of the fitted maximal effect;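 on viability: 100% = DMSO-treated cells and 0% = medium-only wells without cells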
# CONDITIONS_USED: EW8 Ewing sarcoma viability, CellTiter-Glo, 48 h; series mostly up to 45.8 µM
Results filed as inconclusive are left out. Calls of active or inactive are those of the source. Calls follow the shape of the dose curve; as a rule, active = well fitted inhibition curve with a large enough effect; inconclusive = small, poorly fitted or top-dose-only effect; inactive = no such curve, though single readings can be large or run the other way.
MEASURED_PARAMETER: Potency

>  <COMPOUND>
Cc1nc(-c2ccc(OCC(C)C)c(C#N)c2)sc1C(=O)O

>  <Potency>
inactive

$$$$
>  <COMPOUND>
O=C(CCc1ccc(O)cc1)c1c(O)cc(O)cc1O

>  <Potency>
5.9 µM (active)

$$$$
>  <COMPOUND>
C[C@@H](N)C1CCC(C(=O)Nc2ccncc2)CC1 (stereo partly specified)

>  <Potency>
inactive

$$$$
>  <COMPOUND>
CNC[C@@H](O)[C@@H](O)[C@H](O)[C@H](O)CO

>  <Potency>
inactive

$$$$
>  <COMPOUND>
COCCCOc1ccnc(CS(=O)c2nc3ccccc3[nH]2)c1C (stereo unspecified)

>  <Potency>
inactive

$$$$

Moving on to another compound below.
Qu. Would you kindly share the measured Potency for Cc1ccc(Nc2nccc(N(C)c3ccc4c(C)n(C)nc4c3)n2)cc1S(N)(=O)=O ?
Ans. inactive

---

Let's look at some compounds and their measured Potency.
# ASSAY_NAME: Quantitative High-Throughput drug screen in 47 multiple myeloma cell lines against the NCATS MIPE library collection: MMM1_PLB cell viability assay (AID 1918976); further: potency means the concentration at half of the fitted maximal effect; nearly all actives have a fitted effect of over 35% in size
# CONDITIONS_USED: MMM1 myeloma cells viability, CellTiter-Glo, 48 h; series mostly up to 45.8 µM
Results filed as inconclusive are left out. Calls of active or inactive are those of the source. Calls follow the shape of the dose curve; as a rule, active = well fitted cell-killing curve with a large enough effect; inconclusive = small, poorly fitted or top-dose-only effect, or effect the other way; inactive = no such curve, though single readings can be large or run the other way.

Answered examples (3):
>  <COMPOUND>
CN(C)c1ccc2nc3ccc(=[N+](C)C)cc-3sc2c1

>  <ENDPOINT_RESULT>
5.26 µM (active)

$$$$
>  <COMPOUND>
O=C(NC(Cc1cc(=O)[nH]c2ccccc12)C(=O)O)c1ccc(Cl)cc1 (stereo not given)

>  <ENDPOINT_RESULT>
9.35 µM (active)

$$$$
>  <COMPOUND>
Oc1ccc2ccccc2c1SSc1c(O)ccc2ccccc12

>  <ENDPOINT_RESULT>
20.9 µM (active)

$$$$

Qu. I have this compound here, O=C(O)c1cccc(-c2noc(-c3ccccc3F)n2)c1 , and I need its recorded Potency.
Ans. 2.35 µM (active)

Qu. Look at this compound and give its reported Potency. C[C@H](Cc1ccc(O)c(O)c1)[C@@H](C)Cc1ccc(O)c(O)c1
Ans. 6.62 µM (active)

Qu. Recorded Potency of CC(=O)NC[C@H]1CN(c2ccc(N3CCOCC3)c(F)c2)C(=O)O1 , please.
Ans. 4.69 µM (active)

Qu. I would be grateful if you could share the reported Potency for N=C(N)c1ccc2cc(OC(=O)c3ccc(N=C(N)N)cc3)ccc2c1 .
Ans. 0.935 µM (active)
